assay: qHTS assay to test for compound auto fluorescence at 460 nm (blue) in HEK293 cells (AID 720678); settings: blue autofluorescence 405/460 nm; series mostly up to 91.3 µM; note: % is set by controls: 0 for no effect and ±100 for the full control effect
Activity calls are given as the source filed them. Calls come from the whole dose curve; as a rule, active = well fitted curve in the direction sought with a large enough effect in the repeat runs; inconclusive = weak or mixed curves; inactive = flat fitted curve, though single readings scatter.

MOLECULE | fluorescence, % of triamterene
O=[N+]([O-])C(Br)Br | inactive
CN1[C@@H]2CC[C@H]1CC(O)C2 (stereo partly drawn) | inactive
CC(=O)C(Cl)C(=O)N(C)C (stereo not drawn) | inactive

###

Target: Cytochrome P450 2C19 (Homo sapiens)
Assay: Cytochrome P450 Family 2 Subfamily C Member 19 (CYP2C19) small molecule antagonists: luciferase reporter qHTS assay (AID 1671197); note: nearly all actives have a fitted effect of over 65% in size
Settings: P450-Glo CYP2C19 enzyme, luciferin luminescence, 1 h; series mostly up to 115 µM
Source text: National Center for Advancing Translational Sciences [NCATS] U.S. Environmental Protection Agency [EPA] National Institutes of Environmental Health Sciences [NIEHS] National Toxicology Program [NTP] U.S. Food and Drug Administration [FDA] Cytochrome P450 (CYP) enzymes are membrane-bound hemeproteins that play a key role in metabolism of drugs and xenobiotics. […] The luciferin products formed are detected with a luciferin detection reagent, and the amount of light produced is proportional to CYP activity. […]
Records with an inconclusive call do not appear. The source made the active and inactive calls. Calls come from the whole dose curve; as a rule, active = well fitted inhibition curve with a large enough effect in the repeat runs; inconclusive = weak or mixed curves; inactive = no such curve, though single readings can be large or run the other way.
// allowed return values: 1 (yes) (active), 0 (no) (inactive)

Exercise: // param item: "C[C@@H]1CC2=CC(=O)CC[C@@H]2[C@H]2CC[C@@]3(C)[C@@H](CC[C@]3(C)O)[C@@H]21" ; yields the recorded call
Solution: 1 (yes)

Exercise: Please state the recorded outcome for this compound: CN1C2CCC(C)(C)C1CC(OC(=O)C(O)(c1cccs1)c1cccs1)C2 (stereo unspecified)
Solution: 0 (no)

Exercise: What is the recorded call for this compound in the test? "c1ccc2nc(N3CCNCC3)ccc2c1"
Solution: 0 (no)

Exercise: Give the logged outcome of this assay for the following compound: CCOP(=S)(NC(C)C)Oc1ccccc1C(=O)OC(C)C (stereo unspecified)
Solution: 1 (yes)

Exercise: Called result for "S=C=NCCc1ccccc1"
Solution: 1 (yes)

Exercise: Any idea what this test logged for "Nc1cc(Cl)ccc1Cl" ?
Solution: 0 (no)

###

assay: qHTS assay for identifying genotoxic compounds that show differential cytotoxicity against isogenic chicken DT40 cell lines with known DNA damage response pathways - Rev3 mutant cell line (AID 743014); conditions: chicken DT40 Rev3-/- viability, CellTiter-Glo, 40 h; series mostly up to 68.4 µM; note: nearly all actives have a fitted effect of over 55% in size
Results filed as inconclusive are left out. Calls of active or inactive are those of the source. Calls come from the whole dose curve; as a rule, active = well fitted cell-killing curve with a large enough effect in the repeat runs; inconclusive = weak or mixed curves, or effect the other way; inactive = no such curve, though single readings can be large or run the other way.
Response enum: Y = active, N = inactive

Exercise: Answer briefly: the call reported for "Clc1ccc(C2(Cn3cncn3)OCCO2)c(Cl)c1" in this assay.
Solution: Y

Exercise: Dear colleague, could you share the recorded outcome for "O.O.O.O=C([O-])[C@H]([O-])[C@@H]([O-])C(=O)[O-].O=C([O-])[C@H]([O-])[C@@H]([O-])C(=O)[O-].[K+].[K+].[Sb+3].[Sb+3]" when you have a moment?
Solution: N

Exercise: Identify the outcome logged in this assay for the compound shown: C[N+]1(C)[C@@H]2CC[C@H]1CC(OC(=O)C(CO)c1ccccc1)C2 (some centres not stated)
Solution: N

Exercise: Answer briefly: the call reported for "COc1c2c(cc3c1OCO3)CCN(C)C2" in this assay.
Solution: N

Exercise: Which result was noted for this compound in the test: "CC1(C)[C@H](/C=C2\CCSC2=O)[C@@H]1C(=O)OCc1coc(Cc2ccccc2)c1"
Solution: Y

Exercise: State the result this test recorded for "CSC(=O)c1c(C(F)F)nc(C(F)(F)F)c(C(=O)SC)c1CC(C)C" .
Solution: Y

Exercise: How was "[C-]1=CC=CC1.[Cl][Zr+2][Cl].c1cc[cH-]c1" classified in this test?
Solution: N

Exercise: I'd appreciate the recorded outcome for "CN" from this test.
Solution: N

Exercise: Status in this test for "CC(C)Br" ?
Solution: N

Exercise: # fetch the recorded call for "O.O.O.O.O.O.O.O=S(=O)([O-])[O-].[Co+2]" here
Solution: N

Exercise: Outcome logged for "CC(=O)[O][Sn]([c]1ccccc1)([c]1ccccc1)[c]1ccccc1" in this assay:
Solution: Y

Exercise: Field: outcome | Entry: "N#Cc1ccc(N(CC(N)=O)CC(F)(F)F)cc1C(F)(F)F"
Solution: N

Exercise: Hi, do you know how "CCCCON=O" came out in this test?
Solution: N

Exercise: For "S=C=Nc1ccccc1" , what call appears in the results of this test?
Solution: N

Exercise: Which outcome was assigned to "COC(=O)c1cc(Oc2ccc(Cl)cc2Cl)ccc1[N+](=O)[O-]" in this test?
Solution: Y

Exercise: Can you look up the reported call for CC(O)C(=O)[O][Hg][c]1ccccc1 (configuration not stated) for me?
Solution: Y

Exercise: Per the records of this test, what outcome belongs to "CC1CCCC1" ?
Solution: N

Exercise: How was CC(C)C(Nc1ccc(C(F)(F)F)cc1Cl)C(=O)OC(C#N)c1cccc(Oc2ccccc2)c1 (configuration not stated) classified in this test?
Solution: N

Exercise: I'd appreciate the recorded outcome for CC1(C)C(C=C(Cl)Cl)C1C(=O)OC(C#N)c1ccc(F)c(Oc2ccccc2)c1 (configuration not stated) from this test.
Solution: N

Exercise: # outcome recorded in this test, key = "ClC1=C(Cl)[C@]2(Cl)[C@H]3[C@H]([C@@H]4C=C[C@H]3C4)[C@@]1(Cl)C2(Cl)Cl"
Solution: N

Exercise: Query: recorded result category for "Fc1ccc(C(OCCN2CCN(CCCc3ccccc3)CC2)c2ccc(F)cc2)cc1" in this test
Solution: Y

Exercise: Please let me know the test result on file for "O=c1[nH]c(Cl)c(Cl)cc1Cl" .
Solution: N

Exercise: Hey, what did the test say about "Oc1cc(Cl)cc(Cl)c1" ?
Solution: Y

Exercise: Returns: the outcome recorded for "O=NN(CCO)CCO" in this assay.
Solution: N

Exercise: Entry "Nc1nc(N)c(N)c(N)n1" : call = ?
Solution: N

Exercise: // outcome(item) with item = CCOP(=S)(NC(C)C)Oc1ccccc1C(=O)OC(C)C (configuration not stated)
Solution: Y

Exercise: Test call, this compound: "CCOC(=O)Cc1ccccc1"
Solution: N

Exercise: GET /call?item= "O=[N+]([O-])[O-].[Tl+]" returns the recorded outcome of this test.
Solution: Y

Exercise: So what was the verdict on "O=[N+]([O-])c1cccc2cccc([N+](=O)[O-])c12" in this test?
Solution: Y

Exercise: State the result this test recorded for COC(=O)C(C)N(C(=O)c1ccco1)c1c(C)cccc1C (configuration not stated) .
Solution: Y

Exercise: What did this assay record as the result for FC(F)C(F)(F)OCC(Cn1cncn1)c1ccc(Cl)cc1Cl (configuration not stated) ?
Solution: Y

Exercise: Recorded call for "Nc1ccccc1-c1ccccc1" ?
Solution: N

Exercise: Could you please tell me the result logged for "CCOP(=O)(OCC)Oc1cc(C)nc(C(C)C)n1" in this assay?
Solution: N

Exercise: Status in this test for "COc1ccc(Cc2nccc3cc(OC)c(OC)cc23)cc1OC" ?
Solution: Y

Exercise: Fill in: this test's call for "O=[N+]([O-])c1cc(C(F)(F)F)c(Cl)c([N+](=O)[O-])c1Nc1ncc(C(F)(F)F)cc1Cl" is ___
Solution: Y

Exercise: Hey, what did the test say about "CCCCn1cc[n+](C)c1.[Cl][Fe-]([Cl])([Cl])[Cl]" ?
Solution: N

Exercise: Check the results log: what was the call for "COP(=O)(OC)O/C(=C\Cl)c1cc(Cl)c(Cl)cc1Cl" ?
Solution: Y
